Tested on: CP315
Assay: qHTS profiling for inhibitors of Plasmodium falciparum proliferation (AID 504749); further: nearly all actives have a fitted effect of over 60% in size
Conditions: P. falciparum in erythrocytes, SYBR Green DNA, 72 h; series mostly up to 28.7 µM
Records with an inconclusive call do not appear. The source made the active and inactive calls. The call rests on the fitted dose curve; in most records, active means well fitted inhibition curve with a large enough effect; inconclusive means small, poorly fitted or top-dose-only effect; inactive means flat fitted curve, though single readings scatter.
Outcomes: class 1 for active, class 0 for inactive

Molecule	Assigned category
COc1cc2c(cc1OC)[C@@]13CCN4CC5=CCOC6CC(=O)N2C1[C@H]6[C@@H]5C[C@@H]43 (stereo partly specified)	class 0
CC[C@]1(c2cccc(O)c2)CCCCN(C)C1	class 0
C[N+]1([O-])[C@@H]2CC[C@H]1CC(OC(=O)[C@@H](CO)c1ccccc1)C2 (stereo partly specified)	class 0
N[C@H]1C[C@H]1c1ccccc1	class 0
O=C1C=C2C=CC3C[C@@]2(O1)C1CCCCN31 (stereo partly specified)	class 1
CN(C)[C@@H]1C(=O)C(C(N)=O)=C(O)[C@]2(O)C(=O)C3=C(O)c4c(O)ccc(Cl)c4[C@](C)(O)[C@H]3C[C@@H]12	class 0
Oc1ccc2c3c1O[C@H]1[C@@H](O)CC[C@@]4(O)C(C2)N(CC2CCC2)CCC314 (stereo partly specified)	class 0
C[C@@]12CC[C@H]3[C@@H](CC[C@@H]4C[C@H]5S[C@H]5C[C@]43C)[C@H]1CC[C@H]2O	class 0
CCNC[C@H](O)c1cccc(O)c1	class 0
C#CCN(C)[C@@H](C)Cc1ccccc1	class 0
COc1cc(N)c(Cl)cc1C(=O)N[C@@H]1CN2CCC1CC2	class 0
C[C@@]12CCC(=O)C=C1C=C[C@H]1[C@H]3CC[C@](O)(CCC(=O)O)[C@]3(C)CC[C@@H]12	class 0
COc1ccc2c(c1OC)CN1CCc3cc4c(cc3[C@H]1C2)OCO4	class 1
C[C@]12CC[C@H](OS(=O)(=O)O)CC1=CCC1C2CC[C@]2(C)C(=O)CC[C@@H]12 (stereo partly specified)	class 0
CC(C)(O)C1C2OC(=O)C1[C@]1(O)C[C@H]3O[C@]34C(=O)O[C@H]2[C@]14C (stereo partly specified) (tested in a mixture with another compound)	class 0
CN[C@@H](C)[C@H]1CC[C@@H](N)[C@@H](O[C@@H]2[C@@H](O)[C@@H](O[C@H]3OC[C@@](C)(O)[C@@H](NC)[C@@H]3O)[C@H](N)C[C@@H]2N)O1 (tested in a mixture with another compound)	class 0
